assay: probe aLAP1 signal on lysate-treated microarray – cell lysate, small-molecule microarray, COS7 lysate, primary screen (AID 1124); conditions: probe aLAP1, fluorescence, higher = more signal;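 further: lysate comes from COS7 cells expressing LAP1 and is applied at 0.3 µg/mL; score merges spot fluorescence near 667 nm with signal-to-noise over triplicate slides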
Field: composite z-score. Provide a value for each of the compounds that follow.
One number for each entry.

A selection of reference data follows.
| Compound | Reported |
| --- | --- |
| CCCNC(=O)[C@@]1(c2ccc([N+](=O)[O-])cc2)CC(=O)N(CC23CC4CC(CC(C4)C2)C3)[C@@H]1c1ccc(CO)cc1I | 0.137 |
| C=CCNC(=O)[C@H]1[C@@H]2C(=O)O[C@@H](c3ccccc3)[C@@H](c3ccccc3)N2[C@@H](c2ccc(O)cc2)[C@]12C(=O)Nc1ccc(C#Cc3ccc(OC)cc3)cc12 | 0.616 |
| CCCCN1CC=CC23O[C@@H]4/C=C\CCCOC(=O)C4[C@H]2C(=O)N(C(C)CO)[C@@H]3C1=O (some centres undefined) | 0.203 |
| COCC1C2CC[C@H]3C(OCc4ccc(F)cc4C(F)(F)F)OC[C@]4(C)[C@H]3C2=C(CN4C(=O)OC(C)(C)C)[C@H](C)C1COC (some centres undefined) | 0.63 |
| CO[C@H]1O[C@H](CO)[C@@H](OC(=O)Nc2ccccc2-c2ccccc2)[C@H](OC(=O)Nc2ccccc2-c2ccccc2)[C@H]1OC(=O)Nc1ccccc1-c1ccccc1 | -0.32 |

Please look at the items below and tell me composite z-score for each one, in order.
1. CCOC(=O)N1C(c2ccc(OCCCO)cc2)=NC(C(=O)OC)N1C(=O)OCC (centres undefined)
2. O=C(NCCN1CCOCC1)[C@@H]1c2ccccc2C(=O)N(Cc2cc(F)cc(C(F)(F)F)c2)[C@H]1c1ccc(CO)cc1
3. [N-]=[N+]=NCc1ccccc1C[C@]1(C(N)=O)N=C(c2ccc(OCCCO)cc2)O[C@H]1c1ccccc1N=[N+]=[N-]
4. C=CC[C@]1(C(=O)O)N=C(c2ccc(OCCCO)cc2)O[C@H]1c1ccccc1CN=[N+]=[N-]
5. CN1C(=O)C2C=CC(C(O)C(C)(C)C)N(Nc3ccccc3)C2C1=O (centres undefined)

Completion:
0.626
-0.062
0.312
-0.201
-0.519

Dear reader, for each entry below, please note its composite z-score.
1. CN1C(=O)C2C(C1=O)C1C=C(c3ccc(CO)cc3)C2C(C2CC2)N1Cc1cc2c(cc1Br)OCO2 (centres undefined)
2. COc1ccc(C#Cc2ccc3c(c2)[C@]2(C(=O)N3)[C@H](c3ccc(OCCO)cc3)N3[C@H](c4ccccc4)[C@H](c4ccccc4)OC(=O)[C@H]3[C@@H]2C(=O)Nc2nc3ccccc3s2)cc1
3. CN(C)CCCC[C@@H]1NC(=O)[C@@H]2C[C@H](C(=O)NCc3ccc(F)cc3)[C@H](c3cccc(OCCO)c3)N2C1=O

Completion:
1. 0.863
2. 0.534
3. 0.776

Dear colleague, could you please provide composite z-score for the compounds listed below?
1. C=CC[C@@]1(C(=O)OC)N=C(c2ccc(OCCCO)cc2)O[C@@H]1c1ccccc1CN=[N+]=[N-]
2. CCCNC(=O)[C@@]1(C)c2ccccc2C(=O)N(Cc2cc(F)cc(C(F)(F)F)c2)[C@H]1c1ccc(CO)cc1
3. CCCCC(=C=CC[C@H](O)c1ccccc1OCCO)C[C@H](O)c1cc(Cl)cc(Cl)c1O
4. C=C(C)[C@@H]1CC=C(C(O)C2C=CC3C(=O)N(Cc4ccccc4)C(=O)C3N2n2cnnc2)CC1 (some centres undefined)
5. O=c1cccc(-c2cccc3ccccc23)o1
6. COc1ccc([Si](C)(C)[C@@H]2[C@@H](CCO)O[C@]3(C(=O)N(Cc4cccc(N(C=O)c5ccccc5)c4)c4ccccc43)[C@H]2C)cc1
7. [N-]=[N+]=Nc1ccccc1[C@H]1OC(c2ccc(OCCCO)cc2)=N[C@@]1(CCS(=O)(=O)c1ccccc1)C(=O)N1CCOCC1
8. CC(C)NC(=O)[C@@]1(c2ccc([N+](=O)[O-])cc2)CC(=O)N(C(C)C)[C@@H]1c1ccc(CO)cc1

Completion:
-0.11
-0.337
0.569
-0.24
0.871
-0.206
0.603
0.723

Give measured composite z-score for every item shown.
1. CN1C(=O)C2C=CC(C(O)c3ccc(Br)cc3)N(Nc3ccccc3)C2C1=O (centres undefined)
2. C=CCOC(=O)[C@H]1[C@@H]2C(=O)O[C@@H](c3ccccc3)[C@@H](c3ccccc3)N2[C@@H](c2ccc(OCCOC(=O)[C@H]3C[C@H]4C(=O)N[C@@H](CCCC[N+](C)(C)C)C(=O)N4[C@H]3c3ccc(O)cc3)cc2)[C@]12C(=O)Nc1ccccc12
3. CCN(CC)c1ccc(N2CC=CC34O[C@@H]5/C=C\CCCOC(=O)C5[C@H]3C(=O)N(CCCO)[C@@H]4C2=O)cc1 (some centres undefined)

Completion:
1. 0.204
2. 0.411
3. 2.3

---

target: Alpha-bungarotoxin (Bungarus multicinctus) (UniProt P60615); test: compounds binding labelled alpha-BTX control protein – biochemical, small-molecule microarray, Alexa647 label, 635/667 nm fluorescence, artefact control for SMM control protein annotation, profiling panel (AID 1117); conditions: alpha-BTX-A647 binding fluorescence, higher = more signal
Sequence (P60615 whole entry, looked up): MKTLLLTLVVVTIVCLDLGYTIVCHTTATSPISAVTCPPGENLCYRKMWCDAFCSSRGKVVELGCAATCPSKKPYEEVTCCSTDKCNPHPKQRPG
Could you label it yes (1) if measured composite z-score is 0.8 or higher, and no (0) otherwise?

Example entries begin here.
| Compound | Class label |
| --- | --- |
| CCCNC(=O)[C@@]1(C)c2ccccc2C(=O)N(Cc2cc(F)cc(C(F)(F)F)c2)[C@H]1c1ccc(CO)cc1 | no (0) |
| COCCOC(=O)N1C(=O)[C@@]2(c3cc(C#Cc4ccc(OC)cc4)ccc31)[C@H](C(N)=O)[C@H]1C(=O)O[C@H](c3ccccc3)[C@H](c3ccccc3)N1[C@@H]2c1ccc(O)cc1 | no (0) |
| C#C[C@H](O[Si](C#CCCCCCC)(C(C)C)C(C)C)c1ccccc1 | no (0) |
| CCCCC(=O)N(Cc1ccccc1F)[C@@H]1CC(C(=O)NCCO)=C[C@H](Oc2c(I)cc(CO)cc2OC)[C@H]1O | yes (1) |
| COC(=O)c1c2oc(c1C(=O)OC)C(=O)N[C@H](Cc1ccccc1)Cn1nncc1C1(CCCCC1)NC(=O)N[C@H](CO)CC2 | no (0) |
| C=CCC(OC(C)=O)[C@@H]1[C@@H](N(Cc2cc3ccccc3o2)C(=O)c2ccc(C)cc2)c2cc(OCCCO)ccc2N1C(=O)c1ccc(-c2ccccc2)cc1 (stereo not given in full) | no (0) |
| CC(C)C(=C=CC[C@H](O)c1ccccc1OCCO)CCO | yes (1) |
| COC(=O)[C@@]1(Cc2ccc(F)cc2)[C@H]2c3cc(C(=O)N4CCCC4)n(CCc4ccc(OC)c(Br)c4)c3C[C@H]2CN1C(=O)c1ccccc1 | yes (1) |

Prompt: Does composite z-score meet or surpass 0.8 for O=C1OCC=C[C@H]2OC34C=CCN(Cc5ccccc5)C(=O)[C@H]3N(CCCO)C(=O)[C@@H]4[C@@H]12 (stereo not given in full) ?
Completion: no (0)

Prompt: Hello, I need to know if "CCCCC(=C=CC[C@H](O)c1ccccc1OCCO)C[C@H](O)c1cc(Cl)cc(Cl)c1O" has measured composite z-score not below 0.8. Thanks!
Completion: yes (1)

---

Can you tell me z-score for the items I'm about to list?
assay: JC-1 mitochondrial signal, unstimulated HepG2 cells – cell-based, JC-1 fluorescence, 24 h, 100 nL compound, profiling panel (AID 1167); conditions: HepG2 mitochondrial potential, higher = more signal; further: test concentration not given here
One number for each entry.

// below: answered molecules
| Molecule | Reported |
| --- | --- |
| CCCCN1CC=CC23O[C@@H]4/C=C\CCCOC(=O)C4[C@H]2C(=O)N(C(C)CO)[C@@H]3C1=O (some centres not stated) | 0.698 |
| O=C1OCC=C[C@H]2OC34C=CCN(CCN5CCOCC5)C(=O)[C@H]3N(CCCCCCO)C(=O)[C@@H]4[C@@H]12 (some centres not stated) | -0.00733 |
| CC1CC/C=C\[C@H]2OC34C=CCN(c5ccc6ccccc6c5)C(=O)[C@H]3N(CCCCCO)C(=O)[C@@H]4C2C(=O)O1 (some centres not stated) | -0.684 |
| COC(=O)c1nc2oc1CC[C@@H](CO)NC(=O)N(C)Cc1cn(nn1)C[C@H](Cc1ccccc1)NC2=O | 0.136 |
| [N-]=[N+]=Nc1ccccc1C[C@]1(C(=O)N2CCCCC2)N=C(c2ccc(OCCCO)cc2)O[C@H]1c1ccccc1N=[N+]=[N-] | -0.599 |

Quick batch: z-score for everything below.
1. NC(=O)[C@]1(Cc2ccccc2)N=C(c2ccc(OCCCO)cc2)O[C@@H]1c1ccccc1
2. [N-]=[N+]=NCc1ccccc1[C@@H]1OC(c2ccc(OCCCO)cc2)=N[C@]1(Cc1ccccc1)C(=O)O
3. CCCNC(=O)[C@@]1(C)c2ccccc2C(=O)N(Cc2ccc(OC(F)(F)F)cc2)[C@H]1c1ccc(CO)cc1
4. CC(c1ccccc1)C(O)C1C=CC2C(=O)N(c3ccccc3)C(=O)C2N1Nc1ccccc1F (configuration not stated)

Completion:
1. -1.43
2. -0.00992
3. 3.34
4. -1.13

Batch: z-score for all items listed.
1. C=C(C(=O)CC[C@@H](OC(=O)c1cccnc1)c1ccc(OCCO)cc1)C(C)C
2. C=C(CCCC)/C(=C/C[C@H](OC(C)=O)c1ccc(CO)o1)c1cc(C(=O)OC)ccc1OC
3. O=C1C2C=CC(C(O)c3ccc(-c4ccccc4)s3)N(Nc3ccccc3F)C2C(=O)N1c1ccccc1 (configuration not stated)
4. O=c1cccc(-c2cccc3ccccc23)o1
5. CCCC[C@@H]1C[C@H]1[C@@H](NC(=O)c1ccco1)c1ccccc1
6. CCN(CC)c1ccc(N2CC=CC34O[C@@H]5/C=C\CCC(C)OC(=O)C5[C@H]3C(=O)N(CCCCCCO)[C@@H]4C2=O)cc1 (some centres not stated)

Completion:
1: -0.959; 2: -0.854; 3: -2.29; 4: 0.113; 5: -3.6; 6: 1.25

Could I get z-score for every one of these entries?
1. CC(C)NC(=O)[C@@H]1c2ccccc2C(=O)N(C2CCCCC2)[C@H]1c1ccc(CO)cc1
2. O=C1O[C@H](c2ccccc2)[C@H](c2ccccc2)N2[C@H]1[C@@H](C(=O)N1CCCCCCC1)[C@]1(C(=O)Nc3ccc(C#CC4=CCCCC4)cc31)[C@H]2c1ccc(O)cc1

Completion:
1.54
-1.28
